target: recombinant RORγ Ligand Binding Domain (LBD) (Homo sapiens (Human)); assay: Radio-Ligand RORγ Binding Assay (Assay 1); settings: SPA competition with 25-hydroxy [26,27-3H]-cholesterol, cell-free; read-out: RORγ Binding Ki Range
pKi: −log10 of the molar value.

| COMPOUND | pKi |
| --- | --- |
| CCS(=O)(=O)c1ccc(CNC(=O)c2cnc3c(c2)CN(Cc2ccc(C#N)cc2)[C@H]3C(C)C)cc1 | > 7.00 |
| CC(C)[C@H]1c2ncc(C(=O)NC(Cc3ccc(F)cc3)C(=O)O)cc2CN1Cc1ccc(C(F)(F)F)cc1 (stereo partly shown) | < 6.00 |
| CC(C)[C@H]1c2ncc(C(=O)N[C@@H](CO)c3ccc(C#N)cc3)cc2CN1Cc1ccc(C(F)(F)F)cc1 | > 7.00 |
| CC(C)[C@H]1c2ncc(C(=O)NCCC3CCOCC3)cc2CN1Cc1ccc(C(F)(F)F)cc1 | 6.00 to 7.00 |
| CCS(=O)(=O)N1CC(CCNC(=O)c2cnc3c(c2)CN(Cc2ccc(C(F)(F)F)cc2)[C@H]3C(C)C)C1 | 6.00 to 7.00 |
| CC(C)[C@H]1c2ncc(C(=O)NCc3ccccc3OCCN(C)C)cc2CN1Cc1ccc(C(F)(F)F)cc1 | < 6.00 |
| CC(C)[C@H]1c2ncc(C(=O)NCC(c3ccc(C(F)(F)F)cc3)N3CCOCC3)cc2CN1Cc1ccc(C(F)(F)F)cc1 (stereo partly shown) | < 6.00 |

----------
Each entry below lists one item and its recorded pIC50 value.
target: full-length RORγt (Homo sapiens (Human), UniProt P51449); assay: RORγt 5×RORE Assay in Jurkat Cells (Assay 2); conditions: secreted Nanoluc luciferase 5×RORE reporter, 16-18 hrs, read-out: RORγt5X IC50 Range
Sequence (P51449 other isoform, or with tags, fused parts or gaps): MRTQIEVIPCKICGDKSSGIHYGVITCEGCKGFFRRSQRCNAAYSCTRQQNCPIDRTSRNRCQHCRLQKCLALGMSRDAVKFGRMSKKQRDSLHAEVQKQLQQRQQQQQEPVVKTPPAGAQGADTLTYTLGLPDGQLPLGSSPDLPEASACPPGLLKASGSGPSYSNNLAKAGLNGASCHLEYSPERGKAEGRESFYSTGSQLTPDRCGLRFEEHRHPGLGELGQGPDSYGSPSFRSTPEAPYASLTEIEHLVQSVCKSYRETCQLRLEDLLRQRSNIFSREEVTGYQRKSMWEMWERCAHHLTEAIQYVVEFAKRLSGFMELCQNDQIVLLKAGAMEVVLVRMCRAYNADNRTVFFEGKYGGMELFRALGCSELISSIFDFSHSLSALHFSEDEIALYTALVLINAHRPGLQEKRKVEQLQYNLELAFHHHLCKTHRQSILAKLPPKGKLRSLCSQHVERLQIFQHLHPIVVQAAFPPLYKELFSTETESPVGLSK
pIC50: −log10 of the molar value.
RECORDED METRIC: pIC50

| QUERY SMILES | MEASUREMENT |
| --- | --- |
| CCS(=O)(=O)c1ccc(CC(=O)Nc2cnc3c(c2)CN(Cc2ccc(C(F)(F)F)cc2)[C@H]3C(C)C)cc1 | > 7.00 |
| CCS(=O)(=O)c1ccc(CNC(=O)c2cnc3c(c2)CN(Cc2ccc(Cl)cc2)[C@H]3C(C)C)cc1 | > 7.00 |
| CCS(=O)(=O)c1ccc(CNC(=O)c2cnc3c(c2)[C@H](C)N(Cc2ccc(Cl)cc2)[C@H]3C(C)C)cc1 | > 7.00 |
| CCS(=O)(=O)c1cnc(CNC(=O)c2cnc3c(c2)CN(Cc2ccc(C(F)(F)F)cc2)[C@H]3C(C)C)c(C)c1 | > 7.00 |
| CCS(=O)(=O)c1ccc(CNC(=O)c2cnc3c(c2)CN(CC2CCN(CC(F)(F)F)CC2)[C@H]3C(C)C)cc1 | > 7.00 |
| CCS(=O)(=O)c1ccc(CNC(=O)c2cnc3c(c2)CN(C(=O)OC(C)(C)C)[C@H]3C(C)C)nc1 | < 6.00 |
| CCOC(=O)c1cnc(N2Cc3cc(C(=O)NCc4ccc(S(=O)(=O)CC)cc4)cnc3[C@@H]2C(C)C)nc1C(F)(F)F | < 6.00 |

----------
Reported pKi values for the following compounds.
Molecular target: recombinant RORγ Ligand Binding Domain (LBD) (Homo sapiens (Human), UniProt P51449)
Sequence (P51449 269-508): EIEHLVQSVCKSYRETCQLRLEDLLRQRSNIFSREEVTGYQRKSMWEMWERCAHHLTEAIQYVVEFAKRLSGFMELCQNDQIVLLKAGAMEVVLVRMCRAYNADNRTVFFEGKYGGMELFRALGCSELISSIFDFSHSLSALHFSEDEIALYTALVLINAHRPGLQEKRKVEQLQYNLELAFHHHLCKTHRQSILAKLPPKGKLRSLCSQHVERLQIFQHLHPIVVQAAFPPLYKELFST
Assay: Radio-Ligand RORγ Binding Assay (Assay 1)
Details: SPA competition with 25-hydroxy [26,27-3H]-cholesterol, cell-free; read-out: RORγ Binding Ki Range
Protocol: Radio-Ligand RORγ Binding Assay (Assay 1) Compounds of the present invention were tested for ability to bind to RORγ in a cell-free competition assay with commercially available radio-ligand (RL), 25-hydroxy [26,27-^3H]-cholesterol (PerkinElmer, Cat. #NET674250UC), for a ligand binding site on a recombinant RORγ Ligand Binding Domain (LBD) protein expressed as a 6×His-Glutathione-S-Transferase (GST) fusion. […] SPA signal for tritium beta radiation was registered on PerkinElmer Microbeta plate reader. […]
pKi: −log10 of the molar value.

| COMPOUND | pKi |
| --- | --- |
| CC(=O)O[C@@H]1CN(C(C)=O)CC[C@H]1CNC(=O)c1cnc2c(c1)CN(Cc1ccc(C(F)(F)F)cc1)[C@H]2C(C)C | < 6.00 |
| CC(C)[C@H]1c2ncc(C(=O)N[C@@H](CCO)c3ccc(Cl)cc3)cc2CN1Cc1ccc(C(F)(F)F)cc1 | 6.00 to 7.00 |
| CC(C)[C@H]1c2ncc(C(=O)N[C@H]3c4ccccc4C[C@H]3O)cc2CN1Cc1ccc(C(F)(F)F)cc1 [Compound 131] | 6.00 to 7.00 |
| CC(C)[C@H]1c2ncc(C(=O)NCC3CCS(=O)(=O)CC3)cc2CN1Cc1ccc(C(F)(F)F)cc1 | < 6.00 |
| CCS(=O)(=O)c1ccc(CNC(=O)c2cnc3c(c2)CN(Cc2ccc(OC(F)F)cc2)[C@H]3C(C)C)cc1 | > 7.00 |
| CCS(=O)(=O)c1ccc(CC(=O)Nc2cnc3c(c2)CN(Cc2ccc(C#N)cc2)[C@H]3C(C)C)cc1 | > 7.00 |
| CCS(=O)(=O)c1ccc(CNC(=O)c2cnc3c(c2)CN(Cc2ccc(C(F)(F)F)cc2)[C@H]3C(C)C)nn1 | > 7.00 |
| CC(C)[C@H]1c2ncc(C(=O)N[C@H]3c4ccccc4C[C@H]3O)cc2CN1Cc1ccc(C(F)(F)F)cc1 [Compound 125] | < 6.00 |
| CC(C)[C@H]1c2ncc(C(=O)NCC3(CC(=O)O)CCCCC3)cc2CN1Cc1ccc(C(F)(F)F)cc1 | < 6.00 |
| CC(C)[C@@H]1c2ncc(C(=O)NCc3ccc(S(C)(=O)=O)cc3)cc2CN1Cc1ccc(C(F)(F)F)cn1 | < 6.00 |
| CCS(=O)(=O)c1ccc(CNC(=O)c2cnc3c(c2)CN(CC2CCN(CC(F)(F)F)CC2)[C@H]3C(C)C)cc1 | > 7.00 |
| CC(C)[C@H]1c2ncc(C(=O)NC(Cc3cc(=O)[nH]c4ccccc34)C(=O)O)cc2CN1Cc1ccc(C(F)(F)F)cc1 (stereo partly shown) | < 6.00 |
| CCS(=O)(=O)N1CC(CNC(=O)c2cnc3c(c2)CN(Cc2ccc(C(F)(F)F)cc2)[C@H]3C(C)C)C1 | 6.00 to 7.00 |
| CC(C)[C@H]1c2ncc(C(=O)NC3(c4cnccn4)CC3)cc2CN1Cc1ccc(C(F)(F)F)cc1 | < 6.00 |
| CC(C)[C@H]1c2ncc(C(=O)NCCC3C(=O)Nc4ccc(Cl)cc43)cc2CN1Cc1ccc(C(F)(F)F)cc1 (stereo partly shown) | < 6.00 |
| CC(C)[C@H]1c2ncc(C(=O)NCCN3CCN(C)CC3)cc2CN1Cc1ccc(C(F)(F)F)cc1 | < 6.00 |
| CC(C)[C@H]1c2ncc(C(=O)NCc3cccc(S(C)(=O)=O)c3)cc2CN1Cc1ccc(C(F)(F)F)cc1 | 6.00 to 7.00 |
| CC(C)[C@H]1c2ncc(C(=O)NCc3ccnnc3)cc2CN1Cc1ccc(C(F)(F)F)cc1 | 6.00 to 7.00 |
| CCS(=O)(=O)c1ccc(CNC(=O)c2cnc3c(c2)CN(c2ncc(C(F)(F)F)cn2)[C@H]3C(C)C)cc1 | > 7.00 |
| CCOC(=O)c1cnc(N2Cc3cc(C(=O)NCc4ccc(S(=O)(=O)CC)cc4)cnc3[C@@H]2C(C)C)nc1C(F)(F)F | > 7.00 |
| CC(C)[C@H]1c2ncc(C(=O)NCc3ccc(C#N)cn3)cc2CN1Cc1ccc(C(F)(F)F)cc1 | 6.00 to 7.00 |
| CCS(=O)(=O)c1ccc(CNC(=O)c2cnc3c(c2)CN(C(=O)OC(C)(C)C)[C@H]3C(C)C)nc1 | > 7.00 |
| CC(C)[C@H]1c2ncc(C(=O)NCC3CCN(C(=O)CO)CC3)cc2CN1Cc1ccc(C(F)(F)F)cc1 | 6.00 to 7.00 |
| CC(C)[C@H]1c2ncc(C(=O)NCc3nnc4n3CCC4)cc2CN1Cc1ccc(C(F)(F)F)cc1 | < 6.00 |
| CC(C)[C@H]1c2ncc(C(=O)NCC3CN(C(=O)OC(C)(C)C)C3)cc2CN1Cc1ccc(C(F)(F)F)cc1 | < 6.00 |
| CCS(=O)(=O)N1CCC(CNC(=O)c2cnc3c(c2)CN(Cc2ccc(C(F)(F)F)cc2)[C@H]3C(C)C)C1 (stereo partly shown) | 6.00 to 7.00 |
| CC(C)[C@H]1c2ncc(C(=O)NCc3ccc(C(=O)O)cc3)cc2CN1Cc1ccc(C(F)(F)F)cc1 | 6.00 to 7.00 |
| CC(C)[C@H]1c2ncc(C(=O)NC(CO)c3ccc(Br)cc3)cc2CN1Cc1ccc(C(F)(F)F)cc1 (stereo partly shown) | 6.00 to 7.00 |
